Target: MERTK (UniProt Q12866)
Sequence (Q12866 whole entry, looked up): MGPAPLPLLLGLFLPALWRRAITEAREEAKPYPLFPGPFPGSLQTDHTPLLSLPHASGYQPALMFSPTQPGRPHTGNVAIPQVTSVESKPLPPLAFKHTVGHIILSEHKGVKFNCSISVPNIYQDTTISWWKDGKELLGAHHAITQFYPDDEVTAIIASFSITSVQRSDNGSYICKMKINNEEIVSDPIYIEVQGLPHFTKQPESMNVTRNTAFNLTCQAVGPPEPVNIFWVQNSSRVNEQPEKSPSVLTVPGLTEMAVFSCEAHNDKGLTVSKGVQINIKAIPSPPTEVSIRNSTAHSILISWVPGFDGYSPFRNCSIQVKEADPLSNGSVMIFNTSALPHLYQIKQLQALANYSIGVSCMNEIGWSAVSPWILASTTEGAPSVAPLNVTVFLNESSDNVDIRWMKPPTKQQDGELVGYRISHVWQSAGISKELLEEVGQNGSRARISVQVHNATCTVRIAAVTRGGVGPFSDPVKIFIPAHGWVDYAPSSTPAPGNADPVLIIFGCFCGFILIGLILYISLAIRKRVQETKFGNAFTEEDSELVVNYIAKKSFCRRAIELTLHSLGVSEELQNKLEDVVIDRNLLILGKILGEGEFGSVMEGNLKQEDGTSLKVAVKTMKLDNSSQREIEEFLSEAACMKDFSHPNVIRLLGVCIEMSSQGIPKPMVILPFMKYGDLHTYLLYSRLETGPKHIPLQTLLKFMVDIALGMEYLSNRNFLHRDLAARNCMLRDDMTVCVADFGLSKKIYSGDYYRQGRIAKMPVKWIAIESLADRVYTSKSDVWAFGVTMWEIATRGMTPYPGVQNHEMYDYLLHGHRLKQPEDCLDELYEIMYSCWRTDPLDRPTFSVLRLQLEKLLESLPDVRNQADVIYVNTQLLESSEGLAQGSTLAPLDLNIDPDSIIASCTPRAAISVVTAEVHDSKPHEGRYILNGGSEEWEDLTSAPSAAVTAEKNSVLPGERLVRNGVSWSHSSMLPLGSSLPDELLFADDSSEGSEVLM
Experiment: phosphorylation enrichment, bacterial display (enrichment ratio); higher = better substrate or ligand; peptides without Tyr show the background
Property measured: phosphorylation enrichment
Answers are plain numbers.

EVVGGYSVHNA [MLH1_Y183_R182G]	0.369
LNYNEYFRDLN [HPRT1_Y198_D194N]	0.559

Give phosphorylation enrichment for all sequences that follow.
1. VIERSYTSADG [DHCR7_Y382_C380R]
2. GKLIFYDLRGE [KARS1_Y145]
3. CHKRTYKVTGL
4. EMFNPYYGLFE [NEDD4L_Y679]
5. SLLTDCSPQLQ [OTC_Y345_Y345C]

0.395
0.436
0.375
6.86
0.441

====

Biological target: c-Src SH2
Assay: SH2 binding enrichment of the phosphorylated peptide, bacterial display (enrichment ratio); higher = better substrate or ligand; peptides without Tyr show the background
Please provide measured SH2 binding enrichment for the entries that follow.
Numbers only.

Field: example entries. Status: answers known.
LGGSPYPGVPV [FGFR1_Y701]	0.546
NTFENYWPFFQ [GATM_Y103_K102N_YF]	0.651
GMSQAYSSSQR [DES_Y5]	0.392

Give SH2 binding enrichment for all sequences that follow.
1. CTHDLYMFMRE [FGFR3_Y724_I726F]
2. VFFGSYSRPFG [NKAP_Y104_YF]
3. PLEGEYFTLQI [TP53_Y327_D324E]
4. LYDPDYMKVIL [CYP4A22_Y104]
5. ALSDGYWVVSN [TPP1_Y459]
6. ARMTNCGLPRF [TSPAN12_Y138_Y138C_YF]
7. MSSHHYDFKKF [ZNF445_Y428_YF]

0.436
1.76
0.493
0.504
9.23
0.74
0.485

====

Biological target: Hck (UniProt P08631)
Sequence (P08631 whole entry, looked up): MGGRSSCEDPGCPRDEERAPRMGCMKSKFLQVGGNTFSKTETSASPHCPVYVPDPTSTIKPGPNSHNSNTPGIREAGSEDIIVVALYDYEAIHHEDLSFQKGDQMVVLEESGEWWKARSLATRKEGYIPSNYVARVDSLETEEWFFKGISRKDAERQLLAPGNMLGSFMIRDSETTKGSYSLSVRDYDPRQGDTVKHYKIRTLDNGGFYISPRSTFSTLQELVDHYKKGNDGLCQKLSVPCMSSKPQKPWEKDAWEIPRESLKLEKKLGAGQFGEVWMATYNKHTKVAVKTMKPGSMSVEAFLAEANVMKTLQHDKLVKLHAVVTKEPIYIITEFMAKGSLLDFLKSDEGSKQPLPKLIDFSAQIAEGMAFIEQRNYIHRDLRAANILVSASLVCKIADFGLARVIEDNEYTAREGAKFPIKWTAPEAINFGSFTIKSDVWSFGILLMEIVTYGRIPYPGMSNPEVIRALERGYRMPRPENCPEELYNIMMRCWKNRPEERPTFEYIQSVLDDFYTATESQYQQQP
Experiment: phosphorylation enrichment, bacterial display (enrichment ratio); higher = better substrate or ligand; peptides without Tyr show the background
Property measured: phosphorylation enrichment
Answers are plain numbers.

Field: example entries. Status: answers known.
CTNPRYLAAGS [RABL3_Y185]	0.357
SIRFNYLLDVL [FGFR4_Y237_YF]	0.485
CETMEYLESKQ [BTK_Y511_A508T]	0.677

Give phosphorylation enrichment for all sequences that follow.
1. LSGFGYRLSDQ [PDCD6_Y124]
2. GLCSFYETSKM [MAGED2_Y449_R446C_YF]
3. DCLASYLDKVR [KRT10_Y160_R156C]

1. 0.444
2. 0.794
3. 0.452

====

Biological target: Grb2 SH2 (UniProt P62993)
Sequence (P62993 whole entry, looked up): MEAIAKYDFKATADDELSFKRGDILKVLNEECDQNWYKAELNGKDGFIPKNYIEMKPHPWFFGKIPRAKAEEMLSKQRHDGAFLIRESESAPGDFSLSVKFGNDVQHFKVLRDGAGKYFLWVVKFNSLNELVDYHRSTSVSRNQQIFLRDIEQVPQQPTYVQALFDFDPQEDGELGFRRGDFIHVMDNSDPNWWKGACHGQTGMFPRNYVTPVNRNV
Assay: SH2 binding enrichment of the phosphorylated peptide, bacterial display (enrichment ratio); higher = better substrate or ligand; peptides without Tyr show the background
Could you please classify the records by SH2 binding enrichment using these ranges: bucket A = under 0.8, bucket B = from 0.8 up to 1, bucket C = 1 and over

PLEGEYFTLQI [TP53_Y327_D324E]	bucket A
RLVTRYIYNRE [HLA-DQB1_Y62_Y58L]	bucket B
KDQGTYEDFVE [MYL6_Y86_YF]	bucket A
CTTIHYNYMCD [TP53_Y234_N239D]	bucket C

The entry to classify is EFTAGYNVKFD [GPX4_Y123_A120T] ; which class holds it?
bucket B

Then this sequence: GSRGKYSSGFR [ATM_Y332]
bucket C

Then this sequence: PSARTYCYKQE [KLHDC9_Y175]
bucket A

Then this sequence: KFDLMYAKWAF [TUBA3E_Y399]
bucket C

Then this sequence: YETDYYQKGGK [INSR_Y1190_R1191Q]
bucket B

Then this sequence: SWVVPYEPPEV [TP53_Y220_V216W]
bucket C

====

Molecular target: Grb2 SH2 (UniProt P62993)
Assay: SH2 binding enrichment of the phosphorylated peptide, bacterial display (enrichment ratio); higher = better substrate or ligand; peptides without Tyr show the background
Property measured: SH2 binding enrichment
One number for each entry.

Field: example entries. Status: answers known.
AMGAVYQAAAL [HYOU1_Y421]	0.79
GFQPDYGQPAG [SYP_Y278_YF]	0.836
ALCHFYKLNII [ETV6_Y402_R399C_YF]	1.12
MRTMGYMPREM [CABP5_Y62_T65R]	0.785
FIGVTYKNKED [PDGFRA_Y993_E996K_YF]	1.08
MSRDVYSIDYY [NTRK2_Y702_T704I]	0.918
GKSDPYHATSG [GJA1_Y247]	0.761
DVAKEYGHLLP [HRC_Y99_S96A]	0.984
CETMEYLESKQ [BTK_Y511_A508T]	0.63
ASMAKYYASGI [ACADSB_Y372_E376G]	0.739

Give SH2 binding enrichment for all sequences that follow.
1. ETKEDYEKILV [ANXA1_Y335_G333E]
2. SVCPDYDLCSV [SQSTM1_Y148]
3. EIVYVYVKKRS [DNAI2_Y7]
4. PFADPYFDFEI [ZC3H18_Y371_YF]

0.972
1.29
0.687
0.857

====

Tested on: AncSZ
Assay: phosphorylation enrichment, bacterial display (enrichment ratio); higher = better substrate or ligand; peptides without Tyr show the background
Please provide measured phosphorylation enrichment for the entries that follow.
Give bare numbers.

Field: example entries. Status: answers known.
AMGAVYQAAAL [HYOU1_Y421]	0.686
GAMGHYVLAER [HFE_Y342]	0.643
LKRCQYVTEKV [ALDOA_Y204]	1.59

Give phosphorylation enrichment for all sequences that follow.
1. SSKILYHIIKG [CDH17_Y489]
2. MSSHHYDFKKF [ZNF445_Y428_YF]
3. SWVVPYEPPEV [TP53_Y220_V216W]
4. VVFIKYLPEWT [PSEN1_Y240_L235V]

0.565
0.466
1.44
1.01

====

Target: SHP2-C SH2
Assay: SH2 binding enrichment of the phosphorylated peptide, bacterial display (enrichment ratio); higher = better substrate or ligand; peptides without Tyr show the background
Please provide measured SH2 binding enrichment for the entries that follow.
Give bare numbers.

Field: example entries. Status: answers known.
RTVPLYESPRK [DDB1_Y718]	1.01
RRSQSYIPTSG [PLEKHA2_Y185]	0.85
QHVPDYRQNGY [PCDHGA1_Y890_V894G]	0.678

Give SH2 binding enrichment for all sequences that follow.
1. DGYTDYAEFAK [MCFD2_Y138_I136T]
2. DLGIQYKVLKP [CTNNA1_Y177_A179V]
3. ASMAKYYASGI [ACADSB_Y372_E376G]
4. SGVNKYSTAFG [GJB3_Y16]
5. SFLFRYADDSF [RAB3C_Y50]
6. ETKEDYEKILV [ANXA1_Y335_G333E]

1: 0.592; 2: 0.691; 3: 0.595; 4: 0.658; 5: 1.21; 6: 0.905

====

Target: Fyn (UniProt P06241)
Sequence (P06241 whole entry, looked up): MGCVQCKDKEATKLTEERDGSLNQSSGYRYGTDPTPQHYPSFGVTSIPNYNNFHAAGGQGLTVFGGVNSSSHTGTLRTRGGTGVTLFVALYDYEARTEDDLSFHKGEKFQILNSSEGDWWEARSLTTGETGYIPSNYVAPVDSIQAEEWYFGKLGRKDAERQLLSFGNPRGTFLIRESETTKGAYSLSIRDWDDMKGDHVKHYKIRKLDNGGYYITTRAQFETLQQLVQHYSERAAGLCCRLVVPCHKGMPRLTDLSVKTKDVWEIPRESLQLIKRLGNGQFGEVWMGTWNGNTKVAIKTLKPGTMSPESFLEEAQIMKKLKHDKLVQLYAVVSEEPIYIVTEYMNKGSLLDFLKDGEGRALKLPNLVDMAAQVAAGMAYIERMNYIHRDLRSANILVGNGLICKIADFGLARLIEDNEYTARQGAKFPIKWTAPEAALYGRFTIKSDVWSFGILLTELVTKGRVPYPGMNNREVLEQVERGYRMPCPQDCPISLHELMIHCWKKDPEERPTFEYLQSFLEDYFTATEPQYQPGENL
Test: phosphorylation enrichment, bacterial display (enrichment ratio); higher = better substrate or ligand; peptides without Tyr show the background
# phosphorylation enrichment >= 0.5 gives rule met, anything below gives rule not met

ASMAKYYASGI [ACADSB_Y372_E376G]	rule not met
KWHREYNFKYV [RICTOR_Y835_S837F]	rule not met
SHTPSYCDESL [RITA1_Y109]	rule not met
EMTAEYACTRK [ACAD9_Y325]	rule not met
FTFDPYSEEEP [IL2RB_Y387_D391E_YF]	rule met
STEVIYQPRRK [STK11_Y36]	rule met
SGIYQYSIAKF [FOXL2_Y83_I84S]	rule met
GMEIVYVYVKK [DNAI2_Y5]	rule met

Is phosphorylation enrichment for SVTCTHSPALN [TP53_Y126_Y126H] at or above 0.5?
rule met

Then this sequence: IYRASYYRRGD [LTK_Y676]
rule met

Then this sequence: WEQELYSQLVF [WAS_Y102_YF]
rule met

Then this sequence: FSSLGYPPPEG [ZSWIM4_Y87_YF]
rule not met

====

System: AncSZ
Experiment: phosphorylation enrichment, bacterial display (enrichment ratio); higher = better substrate or ligand; peptides without Tyr show the background
Please provide measured phosphorylation enrichment for the entries that follow.
Numbers only.

Field: example entries. Status: answers known.
PVDVAYRRGYF [PLEC_Y2967]	0.867
KVKPIYFRTQG [AR_Y916_H918R]	0.701
VSRGRYRPEEC [B4GALT4_Y113_Q116E]	0.692
SEHLTYLEFKS [RASGRP1_Y215]	1.41
PIQLFYTRRNT [GHR_Y86]	1.18
NACGLYHTMNG [GATA5_Y216_K218T]	0.959

Give phosphorylation enrichment for all sequences that follow.
1. LGNIVYSSLCG [BCOR_Y90_P85L]
2. AFRHGYFDEEM [PLEC_Y2971_R2969H_YF]
3. DDPRRYQKYGY [OAS1_Y362]
4. DRLTVYIDRVR [LMNA_Y45_A43T]
5. FPDFVYKRIKA [DPYSL2_Y479]
6. TSSAIYMNLAS [GATAD2B_Y317]

[2.1, 1.13, 0.598, 1.34, 0.682, 0.949]

Give phosphorylation enrichment for all sequences that follow.
1. QRKRAYVEIEF [MAK16_Y282_YF]
2. KVKGEYDMTVP [AHNAK_Y964]

1: 0.926; 2: 0.669
